Each item that follows carries a reported pIC50.
Target: Glycylpeptide N-tetradecanoyltransferase (Candida albicans (strain SC5314 / ATCC MYA-2876) (Yeast), UniProt P30418)
Sequence (P30418 whole entry): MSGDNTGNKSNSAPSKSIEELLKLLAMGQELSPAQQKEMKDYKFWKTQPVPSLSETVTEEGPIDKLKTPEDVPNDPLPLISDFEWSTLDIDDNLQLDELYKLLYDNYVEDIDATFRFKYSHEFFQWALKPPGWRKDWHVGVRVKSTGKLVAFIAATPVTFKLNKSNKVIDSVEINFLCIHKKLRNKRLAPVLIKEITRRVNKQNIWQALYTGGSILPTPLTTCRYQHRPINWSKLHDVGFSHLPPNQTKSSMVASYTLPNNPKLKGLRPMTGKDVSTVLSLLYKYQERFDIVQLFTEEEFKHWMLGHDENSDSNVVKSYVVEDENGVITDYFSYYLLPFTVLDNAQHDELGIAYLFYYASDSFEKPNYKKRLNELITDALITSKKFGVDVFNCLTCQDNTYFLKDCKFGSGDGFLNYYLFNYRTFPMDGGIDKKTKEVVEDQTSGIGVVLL
Assay: Inhibition of Candida albicans N-myristoyltransferse
pIC50: −log10 of the molar value.
endpoint: pIC50

INSERT INTO assay_data (test_smiles, measurement_qualifier, obs_value) VALUES
  ('O=C(NCCNCc1ccc2ccccc2c1)c1ccc2nc(NCC3CCCCC3)sc2c1', '<', 6.00),
  ('CCOC(=O)c1oc2cccc(OCCCNC(C)(C)C)c2c1C', '=', 5.77),
  ('Cc1ccc(C(=O)c2oc3cccc(OCCCNCc4cccnc4)c3c2C)nc1', '=', 9.41),
  ('O=C(CCNCc1ccc(-c2ccccc2)cc1)Nc1ccc2nc(NC(=O)C3CCCC3)sc2c1', '=', 6.80),
  ('CC(C)C(=O)Nc1nc2ccc(C(=O)NCCNCc3ccc4ccccc4c3)cc2s1', '=', 7.34);
